- measurement notes: Plasma pharmacokinetics of capecitabine and its metabolites after oral capecitabine in CES2-modified mice
- Assay type: in vivo, mouse
- experimental conditions: female, Ces2^–/– (Ces2 cluster knockout), mouse, plasma, po, 500 mg/kg, female Ces2^–/– mice; oral capecitabine 500 mg/kg; plasma; read-out: AUC0-2h
Reported AUC(0-t) by item:
Kindly provide the numeric value in ng·h/mL only, without the unit symbol.

INSERT INTO results (molecule, readout_name, measure_unit, measured_value) VALUES
  ('CCCCCOC(=O)Nc1nc(=O)n([C@@H]2O[C@H](C)[C@@H](O)[C@H]2O)cc1F [Capecitabine, reference compound]', 'AUC(0-t)', 'ng·h/mL', 31300);

Would you mind telling me what AUC(0-t) value was observed for O=c1[nH]cc(F)c(=O)[nH]1 [5-FU, 5-fluorouracil, reference compound] ? 187

Which AUC(0-t) value belongs to C[C@H]1O[C@@H](n2cc(F)c(N)nc2=O)[C@H](O)[C@@H]1O ? 175000
